Reference source for all entries: patent US8383690B2

# Test system: H. pylori
# testMethodNotes: MIC/MBC by microbroth dilution assay against H. pylori
# Type: cell-based, Helicobacter pylori
# experimentalSetup: Helicobacter pylori, ATCC49503, strain ATCC 49503; read-out: MIC
parameter: MIC (µg/mL)
# number only, unit µg/mL dropped from output

Some compounds with known MIC results, for comparison:
compound	reading
CC1(C)S[C@@H]2[C@H](NC(=O)[C@H](N)c3ccc(O)cc3)C(=O)N2[C@H]1C(=O)O [Amoxycillin, amoxycillin]	0.0125
O=C(O[C@H]1[C@H](O)[C@@H](CO)OC(O)[C@@H]1OC(=O)c1cc(O)c(O)c(O)c1Oc1cc2c(=O)oc3c(O)c(O)cc4c(=O)oc(c1O)c2c34)c1cc(O)c(O)c(O)c1 (mixture of isomers) [Oenothein C]	6.25
CC[C@H]1OC(=O)[C@H](C)[C@@H](O[C@H]2C[C@@](C)(OC)[C@@H](O)[C@H](C)O2)[C@H](C)[C@@H](O[C@@H]2O[C@H](C)C[C@H](N(C)C)[C@H]2O)[C@](C)(OC)C[C@@H](C)C(=O)[C@H](C)[C@@H](O)[C@]1(C)O [Clarithromycin, clarithromycin]	0.00625

// switching to the query compound
Give the measured MIC for Cc1ncc([N+](=O)[O-])n1CCO [Metronidazole, metronidazole]
1.56
